Assign z-score to each entry below.
- assay summary: DUSP6 inhibitors restoring Erk phosphorylation by chemical complementation, primary imaging in DUSP6-transfected HeLa (AID 609)
- experimental context: HeLa MKP-3 transfected, phospho-Erk imaging KS statistic; measured here: nuclear pErk red intensity z-score; at 10 µM; stronger effect = higher value; cells stimulated with TPA for 15 min
Just the number, please, no unit after it.

[Q] Look up z-score: COCCNC(=O)C(C#N)c1nc2ccccc2nc1N1CCN(Cc2ccc3c(c2)OCO3)CC1 (stereo not drawn)
[A] 1.16

[Q] So what does the record say about z-score for Cc1ccc(N2C(=O)CC3(CC4C=CC3C4)C2=O)cc1 (stereo not drawn) ?
[A] -0.765

[Q] // returns reported z-score for input CCC(CC)c1nc2cc(OC)c(OC)cc2c(=O)o1
[A] 0.697

[Q] Which z-score is reported for this molecule? COc1cc(=O)[nH]c(=O)n1CC(=O)c1ccccc1
[A] 1.07

[Q] Consider the molecule O=C(COc1ccc(F)cc1)OCCN1CCOCC1 and give its measured z-score.
[A] 2.07

[Q] # query: z-score of entry O=C(NCc1ccccn1)c1ccc(=O)oc1
[A] -0.703

[Q] Which measured z-score value corresponds to CCOC(=O)NC(Nc1sc2c(c1C(N)=O)CCCC2)(C(=O)OCC)C(F)(F)F (stereo not drawn) ?
[A] 1.92

[Q] Record request: z-score value, item O=C(c1coc(=O)c(Br)c1)N1CCOCC1
[A] 0.186

[Q] Need z-score of O=C(CN1CCc2[nH]c3ccccc3c2C1)N1CCCCC1 , thanks.
[A] -0.987

[Q] Could you share which z-score value was measured for C/C(NC(=O)c1cccs1)=C1\C(=O)C[C@@H]2[C@H]1C2(C)C ?
[A] -0.0984

[Q] Data request, read-out z-score, for N#C/C(C(=O)NCc1ccco1)=C1/SC(Cc2ccc(Cl)cc2)C(=O)N1c1ccccc1 (stereo not drawn)
[A] -0.52

[Q] // lookup z-score for C=CCn1c(=O)c(C(=O)NCCN(CC)CC)c(O)c2ccccc21
[A] 1.3

[Q] Consider the molecule shown here: COc1ccccc1NC(=O)Nc1nnc(C(C)C)s1 What is its recorded z-score?
[A] 0.0371

[Q] // returns reported z-score for input COc1ccc(C(O)C(CN2CCOCC2)c2ccccc2)cc1 (stereo not drawn)
[A] 2.05

[Q] I'd like to know its z-score. The molecule in question is Cc1cc(N2C(=O)C(=O)/C(=C(/O)c3ccccc3)C2c2cccs2)no1 (stereo not drawn)
[A] -0.163

[Q] Need z-score of CCC(=O)Nc1ccc(-c2nnc(-c3ccccc3)o2)cc1 , thanks.
[A] 1.06

[Q] Quick check: z-score of CCOc1ccc(/C(O)=C2/C(=O)C(=O)N(c3cc(C)on3)C2c2ccc(C(=O)OC)cc2)cc1 (stereo not drawn) ?
[A] -0.188

[Q] # z-score lookup, item COC(=O)CC(=O)Cc1nc(N)nc(Nc2ccc(C)c(C)c2)n1
[A] 0.858

[Q] Dear colleague, I am looking for the recorded z-score of the following molecule: CCOc1ccc2nc(NC(NC(=O)CC)(C(=O)OC)C(F)(F)F)sc2c1 (stereo not drawn)
[A] 0.266

[Q] Requested read-out: z-score. Entry: CCCC1C(c2ccc(OC)cc2)C(C#N)(C#N)C2(C#N)CC1(N)NC2=O (stereo not drawn)
[A] -0.136

[Q] So what's the measured z-score for this one? COc1ccc(C2/C(=C(\O)c3ccc4c(c3)OCCO4)C(=O)C(=O)N2CCCN(C)C)cc1 (stereo not drawn)
[A] -0.106

[Q] Give the measured z-score of Cn1c(=O)[nH]c(=O)c2c1nc(Br)n2CCSc1ncccn1 .
[A] -0.622

[Q] Using the record for CCOC(=O)CSc1nc(N2CCOCC2)c2c(c1C#N)CC(C)(C)N(C)C2 , report its z-score.
[A] -0.77
